# system under test: human serum albumin (HSA) (Homo sapiens, UniProt P02768)
# Construct: purchased Sigma-Aldrich; host or cells: rice
# Sequence (P02768 25-609): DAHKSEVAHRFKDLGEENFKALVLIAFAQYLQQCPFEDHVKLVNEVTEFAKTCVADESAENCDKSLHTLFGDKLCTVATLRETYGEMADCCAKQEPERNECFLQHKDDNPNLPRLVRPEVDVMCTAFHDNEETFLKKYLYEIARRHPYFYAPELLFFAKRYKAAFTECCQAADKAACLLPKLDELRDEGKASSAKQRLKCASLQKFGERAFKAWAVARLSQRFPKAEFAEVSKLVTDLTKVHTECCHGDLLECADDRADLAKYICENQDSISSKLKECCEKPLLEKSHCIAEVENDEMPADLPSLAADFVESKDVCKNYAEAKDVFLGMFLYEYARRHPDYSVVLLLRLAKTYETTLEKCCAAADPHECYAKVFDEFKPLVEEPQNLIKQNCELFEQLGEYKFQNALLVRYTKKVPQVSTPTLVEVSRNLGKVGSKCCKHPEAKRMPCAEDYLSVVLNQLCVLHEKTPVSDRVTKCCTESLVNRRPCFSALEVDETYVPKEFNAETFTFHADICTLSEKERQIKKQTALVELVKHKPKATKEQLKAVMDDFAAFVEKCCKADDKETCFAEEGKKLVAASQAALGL
# procedure summary: Microscale thermophoresis (MST) with RED-NHS labeled HSA
# Type: binding
# experimental conditions: binary system HSA + R; T = 297.05 K, pH 7.4, HSA 20 nM; read-out: KD (MST)
measured attribute: Kd (µM)
Report the figure in µM without appending any unit label.

So the reported Kd for CCOC(=O)[C@H](CCc1ccccc1)N[C@@H](C)C(=O)N1[C@H](C(=O)O)C[C@@H]2CCC[C@@H]21 [ramipril] , on human serum albumin (HSA) (Homo sapiens, UniProt P02768), turned out to be 775
